System: rgRSV224 virus
Experiment: Antiviral activity: inhibition of rgRSV224 (GFP-expressing RSV) replication in HeLa cells, GFP expression read-out
Format: cell-based, respiratory syncytial virus (RSV)
Conditions: rgRSV224 virus (MOI=1) in HeLa cells, GFP read-out
test readout: RSV HELA pEC50
Give the figure only, with no unit attached.

Example entries and their recorded answers appear below.
C[C@@H]1CCCCCN1C(=O)c1cc(N(C)C)n2nc(-c3ccc(/C=C/C(=O)O)cc3F)cc2n1 = 6.80
CCc1cc(C(=O)N2CCCCC[C@H]2C)nc2cc(-c3ccc4c(c3F)OC[C@H](C(=O)O)C4)nn12 = 7.12
CCc1cc(C(=O)N2CCCCC[C@H]2C)nc2cc(-c3ccc(-c4nc(C(=O)O)ccc4F)cc3F)nn12 = 7.07

Exercise: Fill in RSV HELA pEC50 for record CCc1cc(C(=O)N2CCCCC[C@H]2C)nc2cc(-c3ccc(C4=CCCC(C(=O)O)C4)cc3F)nn12 (stereo partly shown)
Solution: 6.81

====

test readout: melting point (°C)
Expressed in °C, but write only the number.

CCc1cc(C(=O)N2CCCCC[C@H]2C)nc2cc(-c3ccc(N(C)[C@H]4C[C@@H](C(=O)O)C4)cc3F)nn12 (racemic) = 182.69

Exercise: Respond only with melting point recorded for CCCNC(=O)c1ccc(-c2cc3nc(C(=O)N4CCCCCC4C)cc(CC)n3n2)c(F)c1 (stereo not shown)
Solution: 188

Exercise: # return recorded melting point for input CCc1cc(C(=O)N2CCCCCN2C)nc2cc(-c3ccc(C4C[C@H]4C(=O)O)cc3F)nn12 (mixture of isomers)
Solution: 204.71

Exercise: Supply recorded melting point for CCc1cc(C(=O)N2CCCCC[C@H]2C)nc2cc(-c3ccc([C@@H]4C[C@@H]4C(=O)O)cc3F)nn12 (racemic) here.
Solution: 333.46

Exercise: Fill in melting point for record CCc1cc(C(=O)N2CCCCC[C@H]2C)nc2cc(-c3ccc(N4CCC(CO)(C(=O)O)C4)cc3F)nn12 (stereo partly shown)
Solution: 276.58

Exercise: Answer with the recorded melting point for the compound listed here: C[C@@H]1CCCCCN1C(=O)c1cc(C2(C)CC2)n2nc(-c3ccc(/C=C/C(=O)O)cc3F)cc2n1
Solution: 228.12

====

Each record here notes measured melting point.

Consider the following illustrative entries.
CCc1cc(C(=O)N2CCCCCC2C)nc2cc(-c3ccc(NC(=O)CCOC)cc3F)nn12 (stereo not shown) = 175 to 180 °C
CCc1cc(C(=O)N2CCCCCC2C)nc2cc(-c3ccc(NC(=O)c4nccn4C)cc3)nn12 (stereo not shown) = 196 to 198 °C
CCc1cc(C(=O)N2CCCCCC2C)nc2cc(-c3ccc(NC(=O)CCC(N)=O)cc3F)nn12 (stereo not shown) = 155 to 160 °C

From here, focus on the item given below.
Exercise: Give me measured melting point, please, for this molecule: CCc1cc(C(=O)N2CCCCCC2C)nc2cc(-c3ccc(-c4cncc(F)c4)cc3F)nn12 (stereo not shown)
Solution: 95 to 96 °C

====

CC50 at 3 days reference
Test: Cytotoxicity in HeLa cells, ATP content measured with the ATPlite kit
Assay type: cell-based
Details: human, TOX HELA pCC50
Procedure: Black 384-well clear-bottom microtiter plates (Corning, Amsterdam, The Netherlands) were filled via acoustic drop ejection using the echo liquid handler (Labcyte, Sunnyvale, Calif.). 200 nL of compound stock solutions (100% DMSO) were transferred to the assay plates. […] Three days post-virus exposure, viral replication was quantified by measuring GFP expression in the cells by an in house developed MSM laser microscope (Tibotec, Beerse, Belgium). […]

In the examples that follow, each entry is paired with its recorded CC50 at 3 days.
CCc1cc(C(=O)N2CCCCCCC2C)nc2cc(-c3ccc(NC(=O)NCC4CCCO4)cc3F)nn12 (stereo not drawn) [Compound B3] = > 25.1 µM
CCc1cc(C(=O)N2CCCCCC2C)nc2cc(-c3ccc(NC(=O)C4CC4)cc3F)nn12 (stereo not drawn) [Compound E11] = > 25.1 µM

Kindly review the next compound as well.
Exercise: Note down CC50 at 3 days recorded for CCc1cc(C(=O)N2CCCCCC2C)nc2cc(-c3ccc4c(c3)CCN4C)nn12 (stereo not drawn) [Compound A10]
Solution: > 25.1 µM

====

test readout: melting point

See these solved cases before continuing.
CCc1cc(C(=O)N2CCCCCC2C)nc2cc(-c3ccc(CO)cc3)nn12 (stereo not shown) = 155 to 160 °C
CCc1cc(C(=O)N2CCCCCC2C)nc2cc(-c3ccccc3F)nn12 (stereo not shown) = 120 to 125 °C
CCc1cc(C(=O)N2CCCCCC2C)nc2cc(-c3ccc(NC(=O)OCCO)cc3F)nn12 (stereo not shown) = 175 to 180 °C
CCc1cc(C(=O)N2CCCCCC2C)nc2cc(-c3ccc(-c4cnn(C)c4)cc3F)nn12 (stereo not shown) = 65 to 67 °C
CCc1cc(C(=O)N2CCCCC[C@H]2C)nc2cc(-c3ccc(-c4ccc(C(=O)O)cn4)cc3F)nn12 = 181 to 182 °C

Exercise: Consider the compound CCc1cc(C(=O)N2CCCCC2C)nc2cc(-c3ccc(NC(=O)NCC4CCCO4)cc3)nn12 (stereo not shown) . State its measured melting point.
Solution: 175 to 180 °C

Exercise: For the compound CCc1cc(C(=O)N2CCCCCC2C)nc2cc(-c3ccc(CCC(N)=O)cc3F)nn12 (stereo not shown) , report melting point.
Solution: 95 to 100 °C
